# test_method_notes: logP (pH2.3), physical properties of Tables 1 to 3
# Assay type: physicochemical
# From the text: However, the present invention is not limited to these compounds. In the tables, the term “physical properties” means a melting point or logp. The symbol “Me” represents a methyl group, “Et” represents an ethyl group, “Pr” represents a propyl group, “-n” represents normal, and “-i” represents iso.
Measured Physical properties logP(pH2.3) accompanies every entry in the list below.

[
  {
    "molecule": "Cc1cc(C(F)(C(F)(F)F)C(F)(F)F)ccc1NC(=O)c1cccc(Br)c1C(=O)N[C@H](CS(C)(=O)=O)C(C)C",
    "Physical properties logP(pH2.3)": 3.62
  },
  {
    "molecule": "CSC[C@H](CC(C)C)NC(=O)c1c(I)cccc1C(=O)Nc1ccc(C(F)(C(F)(F)F)C(F)(F)F)cc1C",
    "Physical properties logP(pH2.3)": 5.24
  },
  {
    "molecule": "CC[C@@H](CSC)NC(=O)c1c(Br)cccc1C(=O)Nc1ccc(C(F)(C(F)(F)F)C(F)(F)F)cc1C",
    "Physical properties logP(pH2.3)": 4.54
  },
  {
    "molecule": "Cc1cc(C(F)(C(F)(F)F)C(F)(F)F)ccc1NC(=O)c1cccc(Cl)c1C(=O)N[C@@H](CC(C)C)C[S+](C)[O-] (stereo partly shown)",
    "Physical properties logP(pH2.3)": 3.27
  }
]

====

# test_method_notes: logP (pH2.3), physical properties of Tables 1 to 3
# Format: physicochemical
# condition_summary: Table 1
Measured Physical properties: logP accompanies every entry in the list below.
assay_metric: Physical properties: logP

[
  {
    "compound": "CCc1cc(C(F)(C(F)(F)F)C(F)(F)F)ccc1NC(=O)c1cccc(Cl)c1C(=O)N[C@@H](C)CSC",
    "recorded_value": 4.36
  },
  {
    "compound": "CCS(=O)(=O)C[C@H](C)NC(=O)c1c(Br)cccc1C(=O)Nc1ccc(C(F)(F)C(F)(F)F)c(Cl)c1C",
    "recorded_value": 3.19
  },
  {
    "compound": "CCc1cc(C(F)(C(F)(F)F)C(F)(F)F)ccc1NC(=O)c1cccc(Br)c1C(=O)N[C@@H](C)CSC",
    "recorded_value": 4.42
  },
  {
    "compound": "CCSC[C@H](C)NC(=O)c1c(I)cccc1C(=O)Nc1cc(F)c(OC(F)(F)F)cc1Br",
    "recorded_value": 4.28
  },
  {
    "compound": "Cc1c(NC(=O)c2cccc(I)c2C(=O)N[C@@H](C)C[S+](C)[O-])ccc(C(F)(C(F)(F)F)C(F)(F)F)c1F (some centres unmarked)",
    "recorded_value": 2.78
  },
  {
    "compound": "CSC[C@H](C)NC(=O)c1c(Cl)cccc1C(=O)Nc1ccc(C(F)(F)C(F)(F)F)c(F)c1C",
    "recorded_value": 3.88
  },
  {
    "compound": "Cc1c(NC(=O)c2cccc(I)c2C(=O)N[C@@H](C)CS(C)(=O)=O)ccc(Br)c1F",
    "recorded_value": 2.29
  },
  {
    "compound": "CCSC[C@H](C)NC(=O)c1c(Cl)cccc1C(=O)Nc1ccc(C(F)(F)C(F)(F)F)c(Cl)c1C",
    "recorded_value": 4.37
  },
  {
    "compound": "CCS(=O)(=O)C[C@H](C)NC(=O)c1c(Br)cccc1C(=O)Nc1cc(F)c(OC(F)(F)F)cc1Cl",
    "recorded_value": 2.96
  },
  {
    "compound": "CCS(=O)(=O)C[C@H](C)NC(=O)c1c(I)cccc1C(=O)Nc1ccc(C(F)(F)F)c(F)c1C",
    "recorded_value": 2.74
  },
  {
    "compound": "CCSC[C@H](C)NC(=O)c1c(I)cccc1C(=O)Nc1ccc(Br)c(Br)c1C",
    "recorded_value": 3.89
  },
  {
    "compound": "CSC[C@H](C)NC(=O)c1c(I)cccc1C(=O)Nc1ccc(Br)c(F)c1C",
    "recorded_value": 3.30
  },
  {
    "compound": "CCSC[C@H](C)NC(=O)c1c(Br)cccc1C(=O)Nc1ccc(Br)c(F)c1C",
    "recorded_value": 3.54
  },
  {
    "compound": "CCSC[C@H](C)NC(=O)c1c(I)cccc1C(=O)Nc1ccc(OC(F)(F)F)c(Br)c1Cl",
    "recorded_value": 4.42
  },
  {
    "compound": "CCc1cc(C(F)(C(F)(F)F)C(F)(F)F)ccc1NC(=O)c1cccc(Cl)c1C(=O)N[C@@H](C)CS(C)(=O)=O",
    "recorded_value": 3.26
  },
  {
    "compound": "Cc1c(NC(=O)c2cccc(Br)c2C(=O)N[C@@H](C)CS(C)(=O)=O)ccc(C(F)(F)C(F)(F)F)c1F",
    "recorded_value": 2.86
  },
  {
    "compound": "CCS(=O)(=O)C[C@H](C)NC(=O)c1c(I)cccc1C(=O)Nc1ccc(OC(F)(F)F)c(F)c1C",
    "recorded_value": 2.77
  },
  {
    "compound": "CCSC[C@H](C)NC(=O)c1c(Br)cccc1C(=O)Nc1ccc(C(F)(F)C(F)(F)F)c(Cl)c1C",
    "recorded_value": 4.43
  },
  {
    "compound": "CCSC[C@H](C)NC(=O)c1c(Br)cccc1C(=O)Nc1ccc(C(F)(F)C(F)(F)F)c(F)c1C",
    "recorded_value": 4.26
  },
  {
    "compound": "CCSC[C@H](C)NC(=O)c1c(Br)cccc1C(=O)Nc1ccc(Br)c(Br)c1C",
    "recorded_value": 3.78
  },
  {
    "compound": "Cc1c(NC(=O)c2cccc(I)c2C(=O)N[C@@H](C)CS(C)(=O)=O)ccc(I)c1F",
    "recorded_value": 2.40
  },
  {
    "compound": "CCSC[C@H](C)NC(=O)c1c(Br)cccc1C(=O)Nc1ccc(OC(F)(F)F)c(F)c1C",
    "recorded_value": 3.81
  },
  {
    "compound": "CCSC[C@H](C)NC(=O)c1c(I)cccc1C(=O)Nc1ccc(I)c(F)c1C",
    "recorded_value": 3.77
  },
  {
    "compound": "CCS(=O)(=O)C[C@H](C)NC(=O)c1c(Cl)cccc1C(=O)Nc1ccc(C(F)(C(F)(F)F)C(F)(F)F)c(F)c1C",
    "recorded_value": 3.34
  },
  {
    "compound": "CCS(=O)(=O)C[C@H](C)NC(=O)c1c(I)cccc1C(=O)Nc1ccc(Br)c(F)c1C",
    "recorded_value": 2.49
  },
  {
    "compound": "CC[S+]([O-])C[C@H](C)NC(=O)c1c(I)cccc1C(=O)Nc1ccc(C(F)(C(F)(F)F)C(F)(F)F)c(F)c1C (some centres unmarked)",
    "recorded_value": 2.97
  },
  {
    "compound": "CCS(=O)(=O)C[C@H](C)NC(=O)c1c(Br)cccc1C(=O)Nc1ccc(I)c(F)c1C",
    "recorded_value": 2.51
  },
  {
    "compound": "CSC[C@H](C)NC(=O)c1c(I)cccc1C(=O)Nc1ccc(Br)c(Br)c1C",
    "recorded_value": 3.55
  },
  {
    "compound": "CCS(=O)(=O)C[C@H](C)NC(=O)c1c(I)cccc1C(=O)Nc1cc(F)c(OC(F)(F)F)cc1Br",
    "recorded_value": 3.09
  }
]
